Experiment: physchem
Description: Dissociation constant, pKa of the compound
Parameter: pKa. Scope: all listed entries.
In your answer, state the number alone without any accompanying words.

Inquiry: Sample COc1c(NC2CC2)nc(C2CC2)nc1N1CCSCC1 — what was its pKa?
Reply text: 6.47

Inquiry: Now consider Nc1c(NC2CC2)nc(C2CC2)nc1N1CCCCCC1 and answer again.
Reply text: 7.15

Inquiry: Would you mind doing c1c(NC2CC2)nc(C2CC2)nc1N1CCCCCC1 as well?
Reply text: 8.03

* * *

Conditions: buffer, pH 7.4
LogK-IAMex below 3 gives 0 (no); LogK-IAMex at or above it gives 1 (yes).

Illustrative cases are given below, each with its answer.
* Cc1c(NCc2cccs2)nc(C2CC2)nc1NC1CC1 | 0 (no)
* Cc1c(NCCc2cccs2)nc(C2CC2)nc1NC1CC1 | 0 (no)

Inquiry: Item Cc1c(NC2CC2)nc(C2CC2)nc1N1CCC(F)(F)CC1 with LogK-IAMex of 3 or above?
Reply text: 0 (no)

Inquiry: Entry to check: Cc1c(NC2CC2)nc(C2CC2)nc1N1CCC(Cc2ccccc2)CC1
Reply text: 1 (yes)

Inquiry: Also check Cc1c(NC2CC2)nc(C2CC2)nc1N1CC2CCC(C2)C1
Reply text: 1 (yes)

* * *

Target: Phosphodiesterase 4 (Homo sapiens, UniProt P27815+Q08499+Q07343+Q08493)
Assay type: functional, cell-based
Conditions: u-937
Description: Inhibition of PDE4 activity in U937 cells
Recorded IC50 values for a group of compounds are listed next.
Write the quantity with the unit trailing the number.

Consider the following illustrative entries.
* Cc1c(NCc2c(F)cccc2F)nc(C2CC2)nc1NC1CC1 | 2000 nM
* Cc1c(NC2CCCCCC2)nc(C2CC2)nc1NC1CC1 | 2000 nM
* Cc1c(NC2CC2)nc(C2CC2)nc1N1CCSCC1 | 320 nM
* Cc1c(NC2(C)CC2)nc(C2CC2)nc1N1CCCCCC1 | 6300 nM
* Cc1c(NC2CC2)nc(C2CC2)nc1N1CCC(C(F)(F)F)CC1 | 2000 nM

Inquiry: Enter reported IC50 observed with Phosphodiesterase 4 (Homo sapiens, UniProt P27815+Q08499+Q07343+Q08493) for Cc1c(NC2CC2)nc(C2CC2)nc1N1CCC(Cc2ccccc2)CC1
Reply text: 2000 nM

Inquiry: Note, next up: Cc1c(NC2CC2)nc(C2CC2)nc1N1CC=CCC1
Reply text: 790 nM

* * *

Target: Phosphodiesterase 4 (Homo sapiens, UniProt P27815+Q08499+Q07343+Q08493)
Format: functional, cell-based
Settings: u-937
Binarize IC50 at 800 nM; below is satisfied, at or above is not satisfied.

- Cc1c(NC2CC2)nc(Cc2ccccc2)nc1N1CCCCCC1: not satisfied

Inquiry: Does the reported IC50 of the following compound sit strictly below 800 nM? Cc1c(NC2CC2)nc(C2CC2)nc1N1CCC(C)(C)CC1
Reply text: satisfied

Inquiry: Similarly, Cc1c(NC2CC2)nc(C2CC2)nc1N1CCC(O)CC1 ?
Reply text: not satisfied

Inquiry: Another: C=C1CCN(c2nc(C3CC3)nc(NC3CC3)c2C)CC1
Reply text: satisfied

Inquiry: Same lookup for Fc1c(NC2CC2)nc(C2CC2)nc1N1CCSCC1 , please.
Reply text: satisfied

Inquiry: Now try C1CCCN(c2nc(C3CC3)nc3c2CCCCN3)CC1 .
Reply text: not satisfied

Reference source for all entries: ChEMBL document CHEMBL1146129
